As shown below, each of these compounds has a reported BUN value.
- Species: Rattus norvegicus
- Method description: Open TG-GATES - Regimen: Single
- Assay type: toxicity, organism-based, Sprague-Dawley
- Set-up: regimen Single, gender Male, age 6 weeks
- Assay context: in vivo, po, 0 mg/kg, 9 h, tissue Plasma, route gavage, dose level Control
Reply with just the number (in mg/dL).

// worked examples, BUN included
Query: Fill in: BUN of CC(=N)S [THIOACETAMIDE] is ___
Reply: 13

Query: Can you look up the measured BUN of C[C@]12CCC(=O)C=C1CC[C@@H]1[C@@H]2CC[C@@]2(C)[C@H]1CC[C@]2(C)O for me?
Reply: 7.4

Query: Return reported BUN; argument: CC(=O)Oc1cc(C(C)C)c(OCCN(C)C)cc1C
Reply: 12.8

Next:
Query: Bench note: what BUN did CC(C)C(=O)Nc1ccc([N+](=O)[O-])c(C(F)(F)F)c1 [FLUTAMIDE] show?
Reply: 10.4

Query: What does the record list as BUN for C#C[C@]1(O)CC[C@H]2[C@@H]3CCc4cc(O)ccc4[C@H]3CC[C@@]21C ?
Reply: 9.2

Query: Fill in the blank: the reported BUN of CN1C(=O)OC(C)(C)C1=O is ____.
Reply: 9.6

Query: Sample O=C(N[C@H](CO)[C@H](O)c1ccc([N+](=O)[O-])cc1)C(Cl)Cl — what was its BUN?
Reply: 8.6

Query: Field request: BUN | item: CCC(C)(C)C(=O)O[C@H]1C[C@@H](C)C=C2C=C[C@H](C)[C@H](CC[C@@H]3C[C@@H](O)CC(=O)O3)[C@H]21
Reply: 12.2

Query: Query (compound): CC(C)(S)[C@@H](N)C(=O)O ; field requested: BUN
Reply: 8.6

----------
- Organism: Rattus norvegicus
- Method description: Open TG-GATES - Regimen: Daily Repeat
- Type: toxicity, organism-based, Sprague-Dawley
- Set-up: regimen Daily Repeat, gender Male, age 6 weeks
- Assay context: in vivo, po, 100 mg/kg, […], tissue Blood, route gavage, dose level Low, time 14 day
Recorded endpoint: Eos
# do not omit the unit; it follows the number

Record excerpt, results attached:
Query: I would be grateful if you could share the reported Eos for CCN1CCCC1CNC(=O)c1cc(S(N)(=O)=O)ccc1OC (centres undefined) [SULPIRIDE] .
Reply: 1%

Query: Looking for the measured Eos of O=C(N[C@H](CO)[C@H](O)c1ccc([N+](=O)[O-])cc1)C(Cl)Cl [CHLORAMPHENICOL] , can you help?
Reply: 1.4%

Query: Query (compound): O=C(O)c1cccnc1 [NIACIN] ; field requested: Eos
Reply: 1%

In the following, a different compound is considered.
Query: I would be grateful if you could share the reported Eos for CC(C)(S)[C@@H](N)C(=O)O [PENICILLAMINE] .
Reply: 1%

----------
- Species: Rattus norvegicus
- Method description: Open TG-GATES - Regimen: Daily Repeat
- Format: toxicity, organism-based, Sprague-Dawley
- Design: regimen Daily Repeat, gender Male, age 6 weeks
- Assay context: in vivo, po, 0 mg/kg, […], tissue Plasma, route gavage, dose level Control, time 14 day
Recorded endpoint: TG (mg/dL)
Value expressed in mg/dL; do not type the unit.

The examples below pair each entry with its known result.
Query: Look at this molecule and give its reported TG. O=C(O)c1cccnc1 [NIACIN]
Reply: 144.2

Query: Param item = Nc1nc(N)c2nc(-c3ccccc3)c(N)nc2n1 ; retrieve measured TG.
Reply: 141.6

Query: TG for CCc1oc2ccccc2c1C(=O)c1cc(I)c(O)c(I)c1 [BENZIODARONE] ?
Reply: 152

Query: I have this molecule here, CC(=O)Oc1cc(C(C)C)c(OCCN(C)C)cc1C [MOXISYLYTE] , and I need its recorded TG.
Reply: 114.6

Further cases:
Query: So what's the measured TG for this one? O=C(N[C@H](CO)[C@H](O)c1ccc([N+](=O)[O-])cc1)C(Cl)Cl [CHLORAMPHENICOL]
Reply: 189.6

Query: // TG lookup, key: CCN1CCCC1CNC(=O)c1cc(S(N)(=O)=O)ccc1OC (stereo unspecified) [SULPIRIDE]
Reply: 133.4
